- study.system: Estrogen receptor beta (Homo sapiens)
- Sequence (Q92731 whole entry): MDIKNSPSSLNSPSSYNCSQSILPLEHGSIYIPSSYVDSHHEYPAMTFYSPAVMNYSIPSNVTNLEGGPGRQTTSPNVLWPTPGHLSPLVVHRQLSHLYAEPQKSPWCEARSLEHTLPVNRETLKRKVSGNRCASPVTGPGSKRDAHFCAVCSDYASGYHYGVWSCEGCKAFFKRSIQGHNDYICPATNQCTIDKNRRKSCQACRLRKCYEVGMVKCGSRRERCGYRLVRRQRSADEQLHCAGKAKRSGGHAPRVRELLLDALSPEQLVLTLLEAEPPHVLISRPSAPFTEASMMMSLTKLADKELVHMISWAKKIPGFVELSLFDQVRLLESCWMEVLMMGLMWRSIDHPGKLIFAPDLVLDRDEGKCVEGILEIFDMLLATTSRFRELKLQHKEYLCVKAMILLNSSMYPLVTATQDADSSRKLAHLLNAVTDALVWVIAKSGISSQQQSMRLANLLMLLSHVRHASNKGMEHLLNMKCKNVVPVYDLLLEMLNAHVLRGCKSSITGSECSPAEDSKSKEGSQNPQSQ
- experimental.protocol: Agonist activity at ERbeta (unknown origin) expressed in human HepG2 cells assessed as transcriptional activation after 24 hrs by ERE-luciferase reporter gene assay relative to 17beta-estradiol
- Assay type: cell-based
metric: Efficacy

Reported Efficacy for Oc1ccc(/N=C(\c2ccc(O)cc2)c2ccc(O)cc2O)cc1 was 51%

# Efficacy (compound: Cc1cccc(/N=C(\c2ccc(O)cc2)c2ccc(O)cc2O)c1 ) is 9%

Reported Efficacy ( Oc1ccc(/C(=N\c2ccc(Br)cc2)c2ccc(O)cc2O)cc1 ) = 24%

Efficacy reading for Oc1ccc(/C(=N\c2cccc(Cl)c2)c2ccc(O)cc2O)cc1 : 15%

The compound Oc1ccc(C(=Nc2ccc(Br)cc2)c2ccc(O)cc2)cc1 showed Efficacy equal to 11%

GET /value?item= Oc1ccc(C(=Nc2cccc(Cl)c2)c2ccc(O)cc2)cc1 &field=Efficacy returns 10%

// Efficacy lookup, compound = Cc1cccc(N=C(c2ccc(O)cc2)c2ccc(O)cc2)c1 , result: 13%

What the record says about Oc1ccc(N=C(c2ccc(O)cc2)c2ccc(O)cc2)cc1 : Efficacy is 16%

// Oc1ccc(C(=Nc2ccc(Cl)cc2)c2ccc(O)cc2)cc1 : Efficacy value = 9%

Efficacy in this record for Oc1ccc(/C(=N\c2ccc(Cl)cc2)c2ccc(O)cc2O)cc1 : 19%

Consider Oc1ccc(/C(=N\c2ccccc2Cl)c2ccc(O)cc2O)cc1 . Its measured Efficacy is 54%

// provenance: ChEMBL document CHEMBL3232883
